# Kd values compiled below
# Experimental Target: human Scribble PDZ1 domain (728-815) (human, UniProt Q14160 728-815)
# Sequence (Q14160 728-815): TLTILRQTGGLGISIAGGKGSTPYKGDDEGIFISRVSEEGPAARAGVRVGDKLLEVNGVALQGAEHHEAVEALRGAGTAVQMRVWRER
# Test Description: ITC
Non-standard residues stand in square brackets, D forms with d. No end group written: not given here. pS = N[C@@H](COP(=O)(O)O)C(=O)O
Respond numerically; units are µM and should not be typed.

Binder	Kd, µM
PHTNETEL [MCC_SE 8-mer peptide (Ser to Glu at position -1)]	7.2

Asked: What Kd value was documented for this binder, PHTNETSL [MCC 8-mer peptide spanning the C-terminus (PDZ-binding motif) of human MCC] ?
Given back: 7.7

Asked: What Kd value was documented for this binder, PHTNET[pS]L [phosphorylated MCC 8-mer peptide (phospho-Ser at position -1)] ?
Given back: 6.1

Asked: What Kd value was documented for this binder, PHTNETDL [MCC_SD 8-mer peptide (Ser to Asp at position -1)] ?
Given back: 7
